B1: SCL-interrupting locus protein (Homo sapiens), Q15468 (parent)
chain: MEPIYPFARPQMNTRFPSSRMVPFHFPPSKCALWNPTPTGDFIYLHLSYYRNPKLVVTEKTIRLAYRHAKQNKKNSSCFLLGSLTADEDEEGVTLTVDRFDPGREVPECLEITPTASLPGDFLIPCKVHTQELCSREMIVHSVDDFSSALKALQCHICSKDSLDCGKLLSLRVHITSRESLDSVEFDLHWAAVTLANNFKCTPVKPIPIIPTALARNLSSNLNISQVQGTYKYGYLTMDETRKLLLLLESDPKVYSLPLVGIWLSGITHIYSPQVWACCLRYIFNSSVQERVFSESGNFIIVLYSMTHKEPEFYECFPCDGKIPDFRFQLLTSKETLHLFKNVEPPDKNPIRCELSAESQNAETEFFSKASKNFSIKRSSQKLSSGKMPIHDHDSGVEDEDFSPRPIPSPHPVSQKISKIQPSVPELSLVLDGNFIESNPLPTPLEMVNNENPPLINHLEHLKPLQPQLYDEKHSPEVEAGEPSLRGIPNQLNQDKPALLRHCKVRQPPAYKKGNPHTRNSIKPSSHNGPSHDIFEKLQTVSAGNVQNEEYPIRPSTLNSRQSSLAPQSQPHDFVFSPHNSGRPMELQIPTPPLPSYCSTNVCRCCQHHSHIQYSPLNSWQGANTVGSIQDVQSEALQKHSLFHPSGCPALYCNAFCSSSSPIALRPQGDMGSCSPHSNIEPSPVARPPSHMDLCNPQPCTVCMHTPKTESDNGMMGLSPDAYRFLTEQDRQLRLLQAQIQRLLEAQSLMPCSPKTTAVEDTVQAGRQMELVSVEAQSSPGLHMRKGVSIAVSTGASLFWNAAGEDQEPDSQMKQDDTKISSEDMNFSVDINNEVTSLPGSASSLKAVDIPSFEESNIAVEEEFNQPLSVSNSSLVVRKEPDVPVFFPSGQLAESVSMCLQTGPTGGASNNSETSEEPKIEHVMQPLLHQPSDNQKIYQDLLGQVNHLLNSSSKETEQPSTKAVIISHECTRTQNVYHTKKKTHHSRLVDKDCVLNATLKQLRSLGVKIDSPTKVKKNAHNVDHASVLACISPEAVISGLNCMSFANVGMSGLSPNGVDLSMEANAIALKYLNENQLSQLSVTRSNQNNCDPFSLLHINTDRSTVGLSLISPNNMSFATKKYMKRYGLLQSSDNSEDEEEPPDNADSKSEYLLNQNLRSIPEQLGGQKEPSKNDHEIINCSNCESVGTNADTPVLRNITNEVLQTKAKQQLTEKPAFLVKNLKPSPAVNLRTGKAEFTQHPEKENEGDITIFPESLQPSETLKQMNSMNSVGTFLDVKRLRQLPKLF
partner: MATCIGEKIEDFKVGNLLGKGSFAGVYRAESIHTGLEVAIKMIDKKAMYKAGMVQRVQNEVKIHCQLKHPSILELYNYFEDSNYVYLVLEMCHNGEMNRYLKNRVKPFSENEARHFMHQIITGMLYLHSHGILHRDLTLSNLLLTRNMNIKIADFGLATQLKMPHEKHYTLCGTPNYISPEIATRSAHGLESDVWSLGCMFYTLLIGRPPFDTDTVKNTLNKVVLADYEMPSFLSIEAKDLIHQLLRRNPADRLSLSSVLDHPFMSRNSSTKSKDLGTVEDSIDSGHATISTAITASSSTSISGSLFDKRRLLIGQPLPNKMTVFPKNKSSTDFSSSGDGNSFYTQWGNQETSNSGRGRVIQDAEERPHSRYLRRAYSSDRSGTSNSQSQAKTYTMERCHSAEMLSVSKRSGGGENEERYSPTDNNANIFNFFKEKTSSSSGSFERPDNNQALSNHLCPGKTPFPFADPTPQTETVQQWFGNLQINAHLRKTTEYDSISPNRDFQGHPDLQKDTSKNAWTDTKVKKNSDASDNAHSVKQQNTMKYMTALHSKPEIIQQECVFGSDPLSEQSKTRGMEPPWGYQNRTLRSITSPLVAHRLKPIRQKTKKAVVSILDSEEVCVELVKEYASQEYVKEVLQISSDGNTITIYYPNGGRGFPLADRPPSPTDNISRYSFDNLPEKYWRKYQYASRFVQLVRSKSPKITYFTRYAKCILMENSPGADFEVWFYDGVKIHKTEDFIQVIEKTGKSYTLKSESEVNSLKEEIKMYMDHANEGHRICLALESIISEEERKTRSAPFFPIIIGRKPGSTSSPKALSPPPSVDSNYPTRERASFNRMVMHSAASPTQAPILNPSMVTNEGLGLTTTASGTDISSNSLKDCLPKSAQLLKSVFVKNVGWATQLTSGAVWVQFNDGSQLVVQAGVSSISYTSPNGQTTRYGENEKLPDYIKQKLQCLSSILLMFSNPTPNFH

Variants of: B1
Details: with plk4_human PLK4, O00444
property measured: effect of a mutation on the interaction

INSERT INTO results (mutant_designation, readout_value) VALUES
  ('L733D;L736E;I740K;L743D', 'with no effect'),
  ('L733Y;L743Y', 'with no effect'),
  ('L733D;I740K;L743D', 'with no effect'),
  ('L733D;L736E;L743D', 'with no effect');

# context switch: different variant, same effect of a mutation on the interaction
Exam item: Consider the variant L733E;I740E;L743E and give its measured effect of a mutation on the interaction.
Marked response: with no effect
